assay: Thermodynamic equilibrium solubility of the compound in SIF
Overview of recorded solubility thermodynamic for various compounds
property_label: solubility thermodynamic (µg/mL)

smiles_code=Nc1nccc(-c2c[nH]c3ncccc23)n1 qualifier_symbol== recorded_measurement=87.7
smiles_code=c1ccc(CCNc2nccc(-c3c[nH]c4ncccc34)n2)cc1 qualifier_symbol=> recorded_measurement=5
smiles_code=Nc1nccc(-c2c[nH]c3ncc(-c4ccoc4)cc23)n1 qualifier_symbol== recorded_measurement=1
smiles_code=Nc1nccc(-c2c[nH]c3ncc(-c4cccnc4)cc23)n1 qualifier_symbol== recorded_measurement=1
smiles_code=Nc1nccc(-c2c[nH]c3ncc(-c4ccc(Cl)cc4)cc23)n1 qualifier_symbol== recorded_measurement=113

----------
assay: Initial concentration in BALB/c mouse at 2.5 mg/kg, iv by LC/MS-MS analysis; type: ADME, organism-based; details: in vivo
property_label: C0

smiles_code=Nc1nccc(-c2c[nH]c3ncc(-c4ccc(F)cc4)cc23)n1 recorded_measurement="1470 ng/mL"
smiles_code=Nc1nccc(-c2c[nH]c3ncccc23)n1 recorded_measurement="230 ng/mL"

----------
assay: Thermodynamic equilibrium solubility of the compound in water
property_label: solubility thermodynamic (µg/mL)

compound=Nc1nccc(-c2c[nH]c3ncc(-c4ccoc4)cc23)n1 qualifier_symbol== recorded_measurement=20
compound=Nc1nccc(-c2c[nH]c3ncc(-c4ccc(Cl)cc4)cc23)n1 qualifier_symbol== recorded_measurement=57.4
compound=c1ccc(CCNc2nccc(-c3c[nH]c4ncccc34)n2)cc1 qualifier_symbol=< recorded_measurement=5
compound="Nc1nccc(-c2c[nH]c3ncccc23)n1 [MERIOLIN 1]" qualifier_symbol== recorded_measurement=95.8
compound=Nc1nccc(-c2c[nH]c3ncc(-c4cccnc4)cc23)n1 qualifier_symbol== recorded_measurement=80

----------
Each entry below lists one item and its recorded solubility thermodynamic value.
test: Thermodynamic equilibrium solubility of the compound in SGF
property_label: solubility thermodynamic

smiles_code=c1ccc(CCNc2nccc(-c3c[nH]c4ncccc34)n2)cc1 recorded_measurement="1500 µg/mL"
smiles_code=Nc1nccc(-c2c[nH]c3ncc(-c4cccnc4)cc23)n1 recorded_measurement="800 µg/mL"
smiles_code=Nc1nccc(-c2c[nH]c3ncc(-c4ccoc4)cc23)n1 recorded_measurement="800 µg/mL"
smiles_code=Nc1nccc(-c2c[nH]c3ncccc23)n1 recorded_measurement="352 µg/mL"
smiles_code=Nc1nccc(-c2c[nH]c3ncc(-c4ccc(Cl)cc4)cc23)n1 recorded_measurement="74.4 µg/mL"

----------
molecular target: CDK9/cyclin T1 (Homo sapiens) (UniProt O60563+P50750); conditions: at 500 nM
This section presents compounds with their documented inhibition values.
property_label: inhibition (%)

smiles_code=Nc1nccc(-c2c[nH]c3ncc(-c4cccc5ccccc45)cc23)n1 units_of_measure=% recorded_measurement=84
smiles_code=CSc1ccccc1-c1cnc2[nH]cc(-c3ccnc(N)n3)c2c1 units_of_measure=% recorded_measurement=93.7
smiles_code=Nc1nccc(-c2cn(S(=O)(=O)c3ccc(C(F)(F)F)cc3)c3ncccc23)n1 units_of_measure=% recorded_measurement=50.9

----------
pIC50: −log10 of the molar value.
Assay read-out pIC50; system under study: CDK9/cyclin T1 (Homo sapiens).
Sequence (O60563 whole entry): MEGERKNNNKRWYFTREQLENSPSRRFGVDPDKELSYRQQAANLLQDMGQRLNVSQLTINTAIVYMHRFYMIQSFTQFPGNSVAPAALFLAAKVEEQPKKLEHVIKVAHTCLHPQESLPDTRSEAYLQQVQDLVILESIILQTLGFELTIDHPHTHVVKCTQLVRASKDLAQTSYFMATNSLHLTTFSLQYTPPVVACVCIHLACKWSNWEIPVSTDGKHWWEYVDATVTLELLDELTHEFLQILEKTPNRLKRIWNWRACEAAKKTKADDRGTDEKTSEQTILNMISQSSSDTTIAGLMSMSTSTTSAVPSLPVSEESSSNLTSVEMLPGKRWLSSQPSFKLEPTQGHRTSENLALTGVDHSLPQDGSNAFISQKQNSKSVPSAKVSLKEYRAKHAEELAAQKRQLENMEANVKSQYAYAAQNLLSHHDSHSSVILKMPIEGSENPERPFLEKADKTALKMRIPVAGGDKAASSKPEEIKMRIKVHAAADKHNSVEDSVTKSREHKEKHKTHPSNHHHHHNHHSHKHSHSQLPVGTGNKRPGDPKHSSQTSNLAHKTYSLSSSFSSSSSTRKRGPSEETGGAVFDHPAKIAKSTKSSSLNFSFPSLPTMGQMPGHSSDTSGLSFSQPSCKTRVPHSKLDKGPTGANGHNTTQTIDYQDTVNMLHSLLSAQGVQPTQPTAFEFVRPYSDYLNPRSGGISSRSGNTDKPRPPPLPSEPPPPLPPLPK
Sequence (P50750 whole entry): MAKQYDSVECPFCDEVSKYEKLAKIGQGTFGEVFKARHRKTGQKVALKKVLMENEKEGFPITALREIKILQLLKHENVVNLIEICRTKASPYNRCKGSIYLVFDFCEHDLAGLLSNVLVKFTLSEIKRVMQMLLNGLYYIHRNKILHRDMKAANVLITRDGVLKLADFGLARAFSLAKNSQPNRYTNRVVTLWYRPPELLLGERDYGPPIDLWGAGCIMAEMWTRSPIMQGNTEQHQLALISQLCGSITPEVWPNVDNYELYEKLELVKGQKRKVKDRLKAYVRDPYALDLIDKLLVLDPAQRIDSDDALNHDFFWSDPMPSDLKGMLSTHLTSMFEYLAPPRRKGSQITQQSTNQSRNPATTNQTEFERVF
property_label: pIC50

smiles_code=COc1ccc(CCNc2nccc(-c3c[nH]c4ncccc34)n2)cc1 recorded_measurement=7.42
smiles_code=c1ccc2c(CCNc3nccc(-c4c[nH]c5ncccc45)n3)c[nH]c2c1 recorded_measurement=7.28
smiles_code=Nc1nccc(-c2c[nH]c3ncc(-c4cccc(C(F)(F)F)c4)cc23)n1 recorded_measurement=7.33
smiles_code=c1cnc2[nH]cc(-c3ccnc(N4CCOCC4)n3)c2c1 recorded_measurement=6.19
smiles_code=Nc1nccc(-c2c[nH]c3ncc(-c4ccsc4)cc23)n1 recorded_measurement=7.46
